conditions: bifidobacterium adolescentis, 12 h, 2 µM
Description: The drug is tested on Bifidobacterium adolescentis strain: ATCC 15703 for biotransformation. The drug concentrations were measured before and after a 12-h incubation by liquid-chromatography-coupled mass spectrometry (LC–MS)
readoutKind: Bacterial Biotransformation

compound="Nc1nnc(-c2cccc(Cl)c2Cl)c(N)n1 [LAMOTRIGINE]" readoutkind="Bacterial Biotransformation" assayvalue="Compound NOT metabolized"
compound="N=C(N)NC(=O)Cc1c(Cl)cccc1Cl [GUANFACINE]" readoutkind="Bacterial Biotransformation" assayvalue="Compound NOT metabolized"
compound="CCN(CC)CCOC(=O)C1(C2CCCCC2)CCCCC1 [DICYCLOMINE]" readoutkind="Bacterial Biotransformation" assayvalue="Compound NOT metabolized"
compound="Cc1nc2n(c(=O)c1CCN1CCC(c3noc4cc(F)ccc34)CC1)CCCC2O (stereo not drawn) [PALIPERIDONE]" readoutkind="Bacterial Biotransformation" assayvalue="Compound NOT metabolized"
compound="Cc1cc(C)cc(OCC2CNC(=O)O2)c1 (stereo not drawn) [METAXALONE]" readoutkind="Bacterial Biotransformation" assayvalue="Compound NOT metabolized"
compound="O=C(O)CCc1nc(-c2ccccc2)c(-c2ccccc2)o1 [OXAPROZIN]" readoutkind="Bacterial Biotransformation" assayvalue="Compound NOT metabolized"
compound="CCCC1O[C@@H]2C[C@H]3[C@@H]4CCC5=CC(=O)C=C[C@]5(C)[C@H]4[C@@H](O)C[C@]3(C)[C@]2(C(=O)CO)O1 (stereo partly drawn) [BUDESONIDE]" readoutkind="Bacterial Biotransformation" assayvalue="Compound NOT metabolized"

* * *

settings: akkermansia muciniphila, 12 h, 2 µM
Description: The drug is tested on Akkermansia muciniphila strain: ATCC BAA-835 for biotransformation. The drug concentrations were measured before and after a 12-h incubation by liquid-chromatography-coupled mass spectrometry (LC–MS)
readoutKind: Bacterial Biotransformation

compound="O=C(O)COCCN1CCN(C(c2ccccc2)c2ccc(Cl)cc2)CC1 (stereo not given) [CETIRIZINE]" readoutkind="Bacterial Biotransformation" assayvalue="Compound NOT metabolized"
compound="CN(C)C(=O)Oc1cc(OC(=O)N(C)C)cc(C(O)CNC(C)(C)C)c1 (stereo not given) [BAMBUTEROL]" readoutkind="Bacterial Biotransformation" assayvalue="Compound NOT metabolized"
compound="COc1ccc(C(CN(C)C)C2(O)CCCCC2)cc1 (stereo not given) [VENLAFAXINE]" readoutkind="Bacterial Biotransformation" assayvalue="Compound NOT metabolized"
compound="CN1[C@@H]2CC[C@H]1C[C@@H](OC(=O)c1c[nH]c3ccccc13)C2 [TROPISETRON]" readoutkind="Bacterial Biotransformation" assayvalue="Compound NOT metabolized"
compound="Cc1cc2c(s1)Nc1ccccc1N=C2N1CCN(C)CC1 [OLANZAPINE]" readoutkind="Bacterial Biotransformation" assayvalue="Compound NOT metabolized"
compound="COc1cc(C(=O)NCc2ccc(OCCN(C)C)cc2)cc(OC)c1OC [TRIMETHOBENZAMIDE]" readoutkind="Bacterial Biotransformation" assayvalue="Compound NOT metabolized"
compound="COc1ccc2c3c1O[C@H]1C[C@@H](O)C=C[C@@]31CCN(C)C2 [GALANTAMINE]" readoutkind="Bacterial Biotransformation" assayvalue="Compound NOT metabolized"
compound="CC(C)(C)N.CCC[C@H](N[C@@H](C)C(=O)N1[C@H](C(=O)O)C[C@@H]2CCCC[C@@H]21)C(=O)OCC [PERINDOPRIL ERBUMINE]" readoutkind="Bacterial Biotransformation" assayvalue="Compound NOT metabolized"
compound="COc1ccccc1OCCNCC(O)COc1cccc2[nH]c3ccccc3c12 (stereo not given) [CARVEDILOL]" readoutkind="Bacterial Biotransformation" assayvalue="Compound metabolized"
compound="O=c1[nH]c2ccccc2n1C1CCN(CCCC(c2ccc(F)cc2)c2ccc(F)cc2)CC1 [PIMOZIDE]" readoutkind="Bacterial Biotransformation" assayvalue="Compound NOT metabolized"
compound="NC(=O)N1c2ccccc2CC(=O)c2ccccc21 [OXCARBAZEPINE]" readoutkind="Bacterial Biotransformation" assayvalue="Compound metabolized"
compound="c1ccc2[nH]c(-c3cscn3)nc2c1 [THIABENDAZOLE]" readoutkind="Bacterial Biotransformation" assayvalue="Compound NOT metabolized"
compound="C[C@]12CCC(=O)C=C1[C@@H]1C[C@@H]1[C@H]1[C@@H]3[C@@H]4C[C@@H]4[C@@]4(CCC(=O)O4)[C@@]3(C)CC[C@@H]12 [DROSPIRENONE]" readoutkind="Bacterial Biotransformation" assayvalue="Compound NOT metabolized"
compound="OCCN1CCN(CCCN2c3ccccc3Sc3ccc(C(F)(F)F)cc32)CC1 [FLUPHENAZINE]" readoutkind="Bacterial Biotransformation" assayvalue="Compound NOT metabolized"
compound="COc1ccnc(C[S+]([O-])c2nc3ccc(OC(F)F)cc3[nH]2)c1OC (stereo not given) [PANTOPRAZOLE]" readoutkind="Bacterial Biotransformation" assayvalue="Compound metabolized"
compound="CS(=O)(=O)O.OC(CCN1CCCCC1)(c1ccccc1)c1ccccc1 [PRIDINOL METHANESULFONATE]" readoutkind="Bacterial Biotransformation" assayvalue="Compound NOT metabolized"
compound="NC12CC3CC(CC(C3)C1)C2 [AMANTADINE]" readoutkind="Bacterial Biotransformation" assayvalue="Compound NOT metabolized"
compound="CC(C)(C(=O)O)c1ccc(C(O)CCCN2CCC(C(O)(c3ccccc3)c3ccccc3)CC2)cc1 (stereo not given) [FEXOFENADINE]" readoutkind="Bacterial Biotransformation" assayvalue="Compound NOT metabolized"
compound="O=P(O)(O)O.c1ccc(CN(CC2=NCCN2)c2ccccc2)cc1 [ANTAZOLINE PHOSPHATE]" readoutkind="Bacterial Biotransformation" assayvalue="Compound NOT metabolized"
compound="CNCC[C@H](Oc1cccc2ccccc12)c1cccs1 [DULOXETINE]" readoutkind="Bacterial Biotransformation" assayvalue="Compound metabolized"
compound="CC(C)[C@H]1CC[C@H](C(=O)N[C@H](Cc2ccccc2)C(=O)O)CC1 [NATEGLINIDE]" readoutkind="Bacterial Biotransformation" assayvalue="Compound NOT metabolized"
compound="CCOc1ccc(NC(C)=O)cc1 [PHENACETIN]" readoutkind="Bacterial Biotransformation" assayvalue="Compound NOT metabolized"
compound="C=CCN1CC[C@]23c4c5ccc(O)c4O[C@H]2C(=O)CC[C@@]3(O)[C@H]1C5 [NALOXONE]" readoutkind="Bacterial Biotransformation" assayvalue="Compound metabolized"
compound="CC[C@@]1(O)C(=O)OCc2c1cc1n(c2=O)Cc2cc3c(CN(C)C)c(O)ccc3nc2-1 [TOPOTECAN]" readoutkind="Bacterial Biotransformation" assayvalue="Compound NOT metabolized"
compound="OCCN(CCO)c1nc(N2CCCCC2)c2nc(N(CCO)CCO)nc(N3CCCCC3)c2n1 [DIPYRIDAMOLE]" readoutkind="Bacterial Biotransformation" assayvalue="Compound NOT metabolized"
compound="Nc1nc(N)nc(-c2cc(Cl)ccc2Cl)n1.O=C(O)/C=C\\C(=O)O [IRSOGLADINE MALEATE]" readoutkind="Bacterial Biotransformation" assayvalue="Compound NOT metabolized"
compound="CC(C)NCC(O)COc1ccc(CCOCC2CC2)cc1 (stereo not given) [BETAXOLOL]" readoutkind="Bacterial Biotransformation" assayvalue="Compound NOT metabolized"
compound="O=C(NCc1ccccc1)OCCO [BURAMATE]" readoutkind="Bacterial Biotransformation" assayvalue="Compound NOT metabolized"
compound="CNCCC(Oc1ccc(C(F)(F)F)cc1)c1ccccc1 (stereo not given) [FLUOXETINE]" readoutkind="Bacterial Biotransformation" assayvalue="Compound metabolized"
compound="CC(C)c1nc(CN(C)C(=O)N[C@H](C(=O)N[C@@H](Cc2ccccc2)C[C@H](O)[C@H](Cc2ccccc2)NC(=O)OCc2cncs2)C(C)C)cs1 [RITONAVIR]" readoutkind="Bacterial Biotransformation" assayvalue="Compound NOT metabolized"
compound="CCOc1ccccc1OCCN[C@H](C)Cc1ccc(OC)c(S(N)(=O)=O)c1.Cl [TAMSULOSIN HYDROCHLORIDE]" readoutkind="Bacterial Biotransformation" assayvalue="Compound NOT metabolized"
compound="OC(Cn1cncn1)(Cn1cncn1)c1ccc(F)cc1F [FLUCONAZOLE]" readoutkind="Bacterial Biotransformation" assayvalue="Compound metabolized"
compound="CCC(COC(=O)c1cc(OC)c(OC)c(OC)c1)(c1ccccc1)N(C)C.O=C(O)/C=C\\C(=O)O (stereo not given)" readoutkind="Bacterial Biotransformation" assayvalue="Compound metabolized"
compound="CC(C)(C#N)c1cc(Cn2cncn2)cc(C(C)(C)C#N)c1 [ANASTROZOLE]" readoutkind="Bacterial Biotransformation" assayvalue="Compound metabolized"
compound="COC1=CC(=O)C[C@@H](C)[C@]12Oc1c(Cl)c(OC)cc(OC)c1C2=O [GRISEOFULVIN]" readoutkind="Bacterial Biotransformation" assayvalue="Compound metabolized"

* * *

assay: The drug is tested on Clostridium sporogenes strain: ATCC15579 for biotransformation. The drug concentrations were measured before and after a 12-h incubation by liquid-chromatography-coupled mass spectrometry (LC–MS); details: 2 µM
readoutKind: Bacterial Biotransformation

molecule=COc1cc2c(c(OC)c1OC)-c1ccc(OC)c(=O)cc1[C@@H](NC(C)=O)CC2 assayvalue="Compound metabolized"
molecule="CC(CN(C)C)CN1c2ccccc2CCc2ccccc21.O=C(O)/C=C\\C(=O)O (stereo not given) [TRIMIPRAMINE MALEATE]" assayvalue="Compound NOT metabolized"
molecule=c1ccc([C@H]2CN3CCSC3=N2)cc1 assayvalue="Compound metabolized"
molecule="CCC(C)n1ncn(-c2ccc(N3CCN(c4ccc(OCC5COC(Cn6cncn6)(c6ccc(Cl)cc6Cl)O5)cc4)CC3)cc2)c1=O (stereo not given)" assayvalue="Compound NOT metabolized"
molecule=Nc1nc2ccc(OC(F)(F)F)cc2s1 assayvalue="Compound NOT metabolized"
molecule=COc1ccc([C@@H]2Sc3ccccc3N(CCN(C)C)C(=O)[C@@H]2OC(C)=O)cc1 assayvalue="Compound NOT metabolized"
molecule="CC(C)C[C@H]1C(=O)N2CCC[C@H]2[C@]2(O)O[C@](NC(=O)[C@@H]3C=C4c5cccc6[nH]c(Br)c(c56)C[C@H]4N(C)C3)(C(C)C)C(=O)N12.CS(=O)(=O)O [BROMOCRIPTINE MESYLATE]" assayvalue="Compound metabolized"
molecule="CCN(CC)CCCC(C)Nc1c2ccc(Cl)cc2nc2ccc(OC)cc12 (stereo not given)" assayvalue="Compound NOT metabolized"
molecule="CN(C)C(=O)Oc1cccc([N+](C)(C)C)c1.[Br-] [NEOSTIGMINE BROMIDE]" assayvalue="Compound NOT metabolized"
molecule=CC[C@@]1(O)C(=O)OCc2c1cc1n(c2=O)Cc2cc3c(CN(C)C)c(O)ccc3nc2-1 assayvalue="Compound NOT metabolized"
molecule=Cc1ccc(-c2cc(C(F)(F)F)nn2-c2ccc(S(N)(=O)=O)cc2)cc1 assayvalue="Compound metabolized"
molecule=CCN(CC)C(=O)/C(C#N)=C/c1cc(O)c(O)c([N+](=O)[O-])c1 assayvalue="Compound metabolized"
molecule="CC(C)c1c(CN(C)C(C)Cc2ccccc2)n(C)n(-c2ccccc2)c1=O (stereo not given)" assayvalue="Compound NOT metabolized"
molecule=CC(C)c1nc(N(C)S(C)(=O)=O)nc(-c2ccc(F)cc2)c1/C=C/[C@@H](O)C[C@@H](O)CC(=O)[O-].CC(C)c1nc(N(C)S(C)(=O)=O)nc(-c2ccc(F)cc2)c1/C=C/[C@@H](O)C[C@@H](O)CC(=O)[O-].[Ca+2] assayvalue="Compound NOT metabolized"
molecule="CCN(CC)CCNC(=O)c1cc(S(C)(=O)=O)ccc1OC [TIAPRIDE]" assayvalue="Compound NOT metabolized"
